The measured values listed here are drawn from the supplement of paper PMC10567573.

B1: LOXL2 (parent)
chain: YVEVKEGKTWKQICDKHWTAKNSR

variants of: B1; assay: protein stability index of a GFP-peptide fusion (GPS, HEK-293T) (PSI 1-6); higher = more stable; conditions: c terminus: a fixed tail appended;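 further: lentivirally expressed fusions sorted by FACS into six bins by GFP to DsRed ratio, PSI derived from sequencing read proportions per bin multiplied by bin number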
Can you tell me protein stability index for the items I'm about to list?
Answer as a number with no unit attached.

Prompt line: Please report the recorded protein stability index for V2C .
Response line: 2.09

Prompt line: I'd like to know its protein stability index. The variant in question is W10D
Response line: 3.03

Prompt line: What measured protein stability index goes with I13N ?
Response line: 1.37

Prompt line: Need protein stability index of I13H , thanks.
Response line: 2.42

Prompt line: For the variant E6L , what protein stability index is on record?
Response line: 2.79

Prompt line: Return reported protein stability index; argument: N22I
Response line: 2.8

Prompt line: Need protein stability index of W10R , thanks.
Response line: 2.2

Prompt line: Look at this variant and give its reported protein stability index. E6F
Response line: 2.49

Prompt line: Which value of protein stability index has been reported for I13T in the records?
Response line: 2.68

Prompt line: Form field: reported protein stability index of V4A
Response line: 2.73

Prompt line: I am curious: what protein stability index value has been reported for K11G ?
Response line: 2.77

Prompt line: Quick check: protein stability index of K21L ?
Response line: 1.95

Prompt line: What protein stability index value was documented for this variant, W10H ?
Response line: 2.44

Prompt line: # query: protein stability index of entry D15A
Response line: 2.96

Prompt line: Consider the variant E3G and give its measured protein stability index.
Response line: 3.63

Prompt line: Item under review: S23T . Reported protein stability index?
Response line: 2.33

Prompt line: Endpoint output: protein stability index of K16M . Value?
Response line: 2.3

Prompt line: Recorded protein stability index for K5T , please?
Response line: 2.35

Prompt line: Look at this variant and give its reported protein stability index. W10T
Response line: 2.91

Prompt line: If you can, please state the reported protein stability index value of C14M .
Response line: 2.98

Prompt line: Entry under review: E3T . Reported protein stability index?
Response line: 3.63

Prompt line: For A20F , what is its reported protein stability index?
Response line: 1.9

Prompt line: Name the recorded protein stability index for K5N .
Response line: 1.86

Prompt line: Any idea what protein stability index was measured for V2T ?
Response line: 2.22

Prompt line: For H17Y , what is its reported protein stability index?
Response line: 3.47

Prompt line: Returns the measured protein stability index for the input variant. Input: T19R
Response line: 1.77

Prompt line: protein stability index lookup needed for K21N , thanks.
Response line: 2.15

Prompt line: Given the entry D15E , report its measured protein stability index.
Response line: 3.34

Prompt line: Field request: protein stability index | item: T19N
Response line: 2.95

Prompt line: Returns the measured protein stability index for the input variant. Input: Q12V
Response line: 1.48

Prompt line: # get_value(readout='protein stability index', item= W10L )
Response line: 2.46

Prompt line: Which protein stability index value belongs to K11R ?
Response line: 2.52

Prompt line: I have this variant here, E6S , and I need its recorded protein stability index.
Response line: 1.99

Prompt line: Reported protein stability index for V2F : what is it?
Response line: 2.21

Prompt line: Field request: protein stability index | item: W18I
Response line: 1.96

Prompt line: Reported protein stability index for D15S : what is it?
Response line: 2.56

Prompt line: What value of protein stability index has been recorded for this entry: S23P
Response line: 1.94

Prompt line: Quick one: protein stability index of T9G ?
Response line: 2.11

Prompt line: Could you tell me which protein stability index is on file for I13W ?
Response line: 2.25

Prompt line: Sample T19F — what was its protein stability index?
Response line: 2.16

Prompt line: Entry I13E has what protein stability index?
Response line: 2.33

Prompt line: Query (variant): G7M ; field requested: protein stability index
Response line: 1.72

Prompt line: Reported protein stability index, variant H17K : ____
Response line: 2.98

Prompt line: Need protein stability index of K8R , thanks.
Response line: 2.24

Prompt line: # input variant: T19K ; wanted: its protein stability index
Response line: 1.87

Prompt line: Returns the measured protein stability index for the input variant. Input: H17S
Response line: 1.82
